biological target: Bcl-2 (Homo sapiens); assay: TR-FRET binding assay, competition with F-Bak for Bcl-2; settings: GST-Bcl-2, read-out: Ki, competition with F-Bak for the Bcl-2 binding site
Sequence (P10415 whole entry): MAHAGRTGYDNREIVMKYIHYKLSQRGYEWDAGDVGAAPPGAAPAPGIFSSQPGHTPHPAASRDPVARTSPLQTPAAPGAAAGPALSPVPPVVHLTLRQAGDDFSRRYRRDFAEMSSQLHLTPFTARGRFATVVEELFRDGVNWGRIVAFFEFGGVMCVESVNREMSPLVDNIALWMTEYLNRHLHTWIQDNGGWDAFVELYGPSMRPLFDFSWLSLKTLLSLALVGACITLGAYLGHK
assay.metric: Ki (nM)
The response must be a number in nM with no trailing unit.

- smiles.notation: "Cc1c(-c2ccc(N3CCc4cccc(C(=O)Nc5nc6ccccc6s5)c4C3)nc2C(=O)O)cnn1CC12CC3CC(CC(C3)C1)C2"
  test.system: "Bcl-2 (Homo sapiens)"
  unit.abbreviation: "nM"
  Ki: 7
- smiles.notation: "Cc1c(-c2ccc(N3CCc4cccc(C(=O)Nc5nc6ccccc6s5)c4C3)nc2C(=O)O)cc(C#N)n1CC12CC3CC(CC(C3)C1)C2"
  test.system: "Bcl-2 (Homo sapiens)"
  unit.abbreviation: "nM"
  Ki: 16
- smiles.notation: "Cc1c(-c2ccc(N3CCc4cccc(C(=O)Nc5nc6ccccc6s5)c4C3)nc2C(=O)O)cnn1CC12CC3CC(CC(C3)O1)C2"
  test.system: "Bcl-2 (Homo sapiens)"
  unit.abbreviation: "nM"
  Ki: 7
- smiles.notation: "Cc1c(-c2ccc(N3CCc4cccc(C(=O)Nc5nc6ccccc6s5)c4C3)nc2C(=O)O)cccc1N(C)C(=O)C12CC3CC(CC(C3)C1)C2"
  test.system: "Bcl-2 (Homo sapiens)"
  unit.abbreviation: "nM"
  Ki: 104

Switching to the query record.
Supply Ki value. Item: COCCOC12CC3CC(CC(Cn4ncc(-c5ccc(N6CCc7cccc(C(=O)Nc8nc9ccccc9s8)c7C6)nc5C(=O)O)c4C)(C3)C1)C2
10
